// reported RP-LC retention time per item
- assay_explanation: gradient 5% acetonitrile 3 min, to 50% in 2 min, to 85% in 15 min, held 3 min, 100 µL/min
- conditions_used: column: Zorbax Extend-C18 2.1 x 50 mm; eluents: water / acetonitrile, 0.1% formic acid

{"columns": ["compound", "RP-LC retention time [s]"],
 "data": [
  ["COc1ccc(NC(=O)Cn2c(=O)c(CCC(=O)NCC(C)C)nc3ccccc32)cc1OC", 756],
  ["COc1ccc(-n2ncc3c(=O)n(Cc4nc(-c5ccc(OC(F)(F)F)cc5)no4)cnc32)cc1", 1100],
  ["O=C(Nc1ccccc1)N1CCCC1c1nncn1C1CCCC1 (stereo not given)", 622],
  ["Cc1ccc(CNC(=O)C2(C)CCCN(C(=O)Nc3cccc(C)c3C)C2)cc1 (stereo not given)", 978],
  ["Cc1cc(NC(=O)C2=COCCO2)no1", 600],
  ["CCCCNC(=O)Cc1c(C)nn(-c2nc(-c3ccc(F)cc3)cs2)c1C", 1070],
  ["COc1ccc(OC)c(Nc2c(C(=O)N3CCCC3)cnc3nc(C)ccc23)c1", 601],
  ["CCOc1ccc(N2C(=O)CC(c3ccc(OC)c(OC)c3)CC2=O)cc1", 841],
  ["COc1ccc(Cl)cc1S(=O)(=O)NCCn1nc(C)cc1C", 719],
  ["CC1CCN(c2cc(N3CCN(C)CC3)ccc2NC(=O)c2cc(C#N)c[nH]2)CC1", 595],
  ["O=C(Cc1csc(NC(=O)C2CCC(=O)N2)n1)NCCC1=CCCCC1 (stereo not given)", 643],
  ["CCc1cccc(NC(=O)C2CCN(S(=O)(=O)c3ccc4c(c3)CCCC(=O)N4)CC2)c1", 735],
  ["CC(C)CCNC(=O)C1(C)Cn2nc(C(=O)N3CCN(C4CCCCC4)CC3)cc2C(=O)N1C (stereo not given)", 620],
  ["O=C(NCC1CC1)c1cccc(N2CCNC(c3ccccc3)C2)n1 (stereo not given)", 619],
  ["COc1ccc(-c2nc3cccc(C)n3c2Nc2ccc3c(c2)OCCO3)cc1", 987],
  ["Cn1nc(C(=O)N2CC(c3nc(-c4cccs4)no3)C2)ccc1=O", 639],
  ["O=C(CCNc1c(-c2ccccc2)nc2cnccn12)N1CCC(N2CCCCC2)CC1", 552],
  ["O=C([C@@H]1C[C@H](Oc2ccccc2)CN1C(=O)C1CCC1)N1CCCC1", 750],
  ["CCN1CCCn2cc(S(=O)(=O)Nc3cccc(F)c3)cc2C1=O", 716],
  ["COc1ccc(CN2CCC3(CC2)CC(C)(O)CCO3)cc1C (stereo not given)", 629]
]}

---

// RP-LC retention time lookup, one value per entry
- assay_explanation: gradient 5% acetonitrile 3 min, to 50% in 2 min, to 85% in 15 min, held 3 min, 100 µL/min
- conditions_used: column: Zorbax Extend-C18 2.1 x 50 mm; eluents: water / acetonitrile, 0.1% formic acid

{"columns": ["compound", "RP-LC retention time, s"],
 "data": [
  ["COC[C@@H]1OCCN(S(=O)(=O)c2cn(C)cn2)[C@H]1c1ccccc1", 686],
  ["Nc1ncnc2c1ncn2C=C=CCO", 581],
  ["Cc1cccc(-c2[nH]ncc2-c2ccc3ncccc3n2)n1", 635],
  ["Cc1[nH]c(C(=O)N2CCCC(C(=O)NCc3cccc(Cl)c3)C2)c(C)c1C(=O)OC(C)C (centres undefined)", 885],
  ["Cc1ccc(NC(=O)C2CCN(C(=O)C3Sc4ccccc4NC3=O)CC2)cc1Cl (centres undefined)", 878],
  ["COc1cccc(OC)c1OCC(O)CN1CCN(c2ccccc2F)CC1 (centres undefined)", 684],
  ["O=C(NCc1ccccc1)c1nc(Cn2c(=O)oc3ccc(Cl)cc32)no1", 960],
  ["Cc1ccc(-n2c(=O)c3c(cc(C)n3C)n(CC(=O)Nc3cccc(Cl)c3C)c2=O)cc1", 918],
  ["CCC(C(=O)N1CCN(c2ccccn2)CC1)n1ccc2cc(S(=O)(=O)N3CCCCC3)ccc21 (centres undefined)", 734],
  ["CN1Cc2sccc2C(c2ccc(O)c(O)c2)C1 (centres undefined)", 628],
  ["CCN(CC)CCCNC(=O)C(C)n1nc(C)c2c(C)n(-c3ccccc3)nc2c1=O (centres undefined)", 621],
  ["COc1ccc(NC(=O)N2CCC(c3cc(N)on3)CC2)cc1F", 663],
  ["N#Cc1cccc(S(=O)(=O)N2CCc3nc[nH]c3C2)c1", 592],
  ["Cc1cccc(NC(=O)C2CCN(S(=O)(=O)c3ccc4c(c3)sc(=O)n4C(C)C)CC2)c1", 1010],
  ["Brc1ccc(-c2noc(CSc3nccn3-c3ccccc3)n2)cc1", 1030],
  ["CC(=O)N1CCc2cc(-c3ccc(C(=O)N4CCN(C(=O)c5ccco5)CC4)cc3)ccc21", 662],
  ["CCOC(=O)N1CCN(C(=O)CSc2nc(-c3cccc(C)c3)ns2)CC1", 941],
  ["CCCCn1cc(S(=O)(=O)Nc2ccccc2C)c2cccnc21", 985],
  ["CC1CCN(S(=O)(=O)c2ccc3nn(Cc4cccc(F)c4)c(=O)n3c2)CC1", 781],
  ["COC(=O)c1cc(S(=O)(=O)N2CCCC2C(=O)Nc2ccc(F)cc2F)cn1C (centres undefined)", 875],
  ["CC(C)n1c(=O)sc2cc(S(=O)(=O)N3CCC(C(=O)NCC4CCCO4)CC3)ccc21 (centres undefined)", 762],
  ["CCn1cc(C)c(C(=O)O)c1CC(=O)N1CCCCC1", 694],
  ["CCOC(=O)c1cnc2nc(C)ccc2c1Nc1ccccc1F", 684],
  ["O=C(c1cccc(F)c1)N1CCC[C@H]1c1nc(-c2ccccc2)n[nH]1", 685],
  ["COCCN1C(=O)[C@H]2CN(Cc3ccc(OC)c(OC)c3OC)C[C@H]2C1=O", 799],
  ["O=S(=O)(Cc1cccc(F)c1)N1CCC(C2CCNC2)CC1 (centres undefined)", 632],
  ["Cc1ccc(CNC(=O)C2(C)Cn3nc(C(=O)NCCN4CCCC4)cc3C(=O)N2C)cc1 (centres undefined)", 608],
  ["O=c1n(Cc2ccccc2)nc2c(S(=O)(=O)N3CCN(c4ccc(F)cc4)CC3)cccn12", 973],
  ["CCCN(CC1CCOC1)C(=O)Nc1ccc(F)cc1 (centres undefined)", 728],
  ["Cc1noc(-c2ccc(-n3ncc(C(=O)N4CCN(c5ccccn5)CC4)c3C)nc2)n1", 624],
  ["Cc1cc(C)cc(NC(=O)N2CCC(OC3CCN(S(C)(=O)=O)CC3)CC2)c1", 718],
  ["COc1ccc(N2CC(c3nc(-c4cccc(C(F)(F)F)c4)no3)CC2=O)cc1OC (centres undefined)", 966],
  ["CCOc1ccc(N2C=C(C(=O)N3CCCC3)S(=O)(=O)c3ccccc32)cc1", 828],
  ["CCN1C(=O)c2cccnc2Sc2cc(NC(=O)CCOC)ccc21", 645],
  ["CCCNC(=O)C1Cc2cc(S(=O)(=O)N3CCCCC3)ccc2N1C(=O)CC (centres undefined)", 800],
  ["Cc1cccc(NC(=O)Nc2ccc(-c3cn4ccc(C)nc4n3)cc2)c1", 670],
  ["O=C(CC1CCCCC1)NC(Cc1ccccc1)C(=O)N1CCN(c2ccccn2)CC1 (centres undefined)", 695],
  ["CCn1c(=O)c2ccccc2n(Cc2nc(-c3cccc(Br)c3)no2)c1=O", 1120],
  ["Cc1cc(=O)n(CC(=O)Nc2ccccc2F)c(N2CCOCC2)n1", 643]
]}

---

- assay_explanation: gradient 5% acetonitrile 3 min, to 50% in 2 min, to 85% in 15 min, held 3 min, 100 µL/min
- conditions_used: column: Zorbax Extend-C18 2.1 x 50 mm; eluents: water / acetonitrile, 0.1% formic acid

{"columns": ["compound", "RP-LC retention time [s]"],
 "data": [
  ["Cc1cc(C)cc(C(=O)Nc2cnc(N3CCOCC3)nc2)c1", 824],
  ["CCCN1C(=O)C2CCC(=O)N2c2ccc(C(=O)NC(C)c3ccccc3)cc21 (centres undefined)", 801],
  ["Cc1cc(C)cc(NC(=O)C2CCCN(S(=O)(=O)c3cc(-c4noc(C)n4)cs3)C2)c1 (centres undefined)", 1060],
  ["CCCNc1cc(N2CCC(CCC(=O)N3CCN(C(=O)OCC)CC3)CC2)ncn1", 620],
  ["COc1ccc(OC)c(CNC(=O)C2CCCN2S(=O)(=O)c2cc3c(cc2C)NC(=O)CO3)c1 (centres undefined)", 730],
  ["COC(=O)c1ccc2c(=O)n(-c3ccc(C)c(F)c3)c(N3CCSC3)nc2c1", 1150],
  ["COc1ccc(C2CCCN2C(=O)c2c(Br)cnn2C)cc1 (centres undefined)", 841],
  ["Cc1ccc(-c2nc3cc(C)ccn3c2NC(=O)c2ccc(Cl)cc2)cc1", 742],
  ["Cc1ccc(N2CC(c3noc(C4(c5ccccc5)CC4)n3)CC2=O)cc1 (centres undefined)", 989]
]}
